Can you tell me %-inhibition, CaMK2β for the items I'm about to list?
TARGET_OR_SYSTEM: panel of more than 300 wild-type and mutant kinases (313 kinase panel) (Homo sapiens, UniProt Q13554)
Sequence (Q13554 whole entry, change not shown): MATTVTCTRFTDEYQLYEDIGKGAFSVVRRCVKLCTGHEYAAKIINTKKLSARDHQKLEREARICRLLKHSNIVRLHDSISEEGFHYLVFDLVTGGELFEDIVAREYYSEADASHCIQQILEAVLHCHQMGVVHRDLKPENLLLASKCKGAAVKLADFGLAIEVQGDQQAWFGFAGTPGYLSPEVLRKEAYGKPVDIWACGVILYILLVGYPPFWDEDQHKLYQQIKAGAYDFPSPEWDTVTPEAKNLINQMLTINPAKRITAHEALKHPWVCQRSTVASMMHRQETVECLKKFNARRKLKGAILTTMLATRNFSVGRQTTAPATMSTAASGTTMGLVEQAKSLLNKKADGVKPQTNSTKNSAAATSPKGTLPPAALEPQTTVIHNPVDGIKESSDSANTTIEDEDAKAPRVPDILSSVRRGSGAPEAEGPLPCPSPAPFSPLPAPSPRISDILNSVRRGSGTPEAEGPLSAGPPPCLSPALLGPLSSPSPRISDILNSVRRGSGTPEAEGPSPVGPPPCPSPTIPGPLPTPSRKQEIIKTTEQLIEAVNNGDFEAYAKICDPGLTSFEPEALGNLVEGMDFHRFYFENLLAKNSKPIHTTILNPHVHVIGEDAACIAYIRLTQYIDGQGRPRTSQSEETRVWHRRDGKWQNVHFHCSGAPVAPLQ
EXPERIMENT_SUMMARY: Kinase profiling in a biochemical assay panel (mobility shift assays and ELISA), %-inhibition at 1 μM; selectivity entropy
CONDITION_NOTES: kinase CaMK2β; 1 μM compound
Give bare numbers, in %.

Cc1ccc(Nc2nccc(N(C)c3ccc4c(C)n(C)nc4c3)n2)cc1S(N)(=O)=O [pazopanib] ... -2.29

Lab note: each compound below needs its %-inhibition, CaMK2β filled in.
1. CCCS(=O)(=O)Nc1ccc(F)c(C(=O)c2c[nH]c3ncc(-c4ccc(Cl)cc4)cc23)c1F [vemurafenib]
2. CO[C@H]1C[C@@H]2CC[C@@H](C)[C@@](O)(O2)C(=O)C(=O)N2CCCC[C@H]2C(=O)O[C@H]([C@H](C)C[C@@H]2CC[C@@H](OC(=O)C(C)(CO)CO)[C@H](OC)C2)CC(=O)[C@H](C)/C=C(\C)[C@@H](O)[C@@H](OC)C(=O)[C@H](C)C[C@H](C)/C=C/C=C/C=C/1C [temsirolimus]
3. CO[C@H]1C[C@@H]2CC[C@@H](C)[C@@](O)(O2)C(=O)C(=O)N2CCCC[C@H]2C(=O)O[C@H]([C@H](C)C[C@@H]2CC[C@@H](OCCO)[C@H](OC)C2)CC(=O)[C@H](C)/C=C(\C)[C@@H](O)[C@@H](OC)C(=O)[C@H](C)C[C@H](C)/C=C/C=C/C=C/1C [everolimus]
4. Cc1nc(Nc2ncc(C(=O)Nc3c(C)cccc3Cl)s2)cc(N2CCN(CCO)CC2)n1 [dasatinib]

1: -6.64; 2: -9; 3: -10; 4: -6

====

TARGET_OR_SYSTEM: panel of more than 300 wild-type and mutant kinases (313 kinase panel) (Homo sapiens)
EXPERIMENT_SUMMARY: Kinase profiling in a biochemical assay panel (mobility shift assays and ELISA), %-inhibition at 1 μM; selectivity entropy
CONDITION_NOTES: kinase BRAF; 1 μM compound
PARAMETER: %-inhibition, BRAF (%)
Give bare numbers, in %.

# example entries with known answers
N#CC[C@H](C1CCCC1)n1cc(-c2ncnc3[nH]ccc23)cn1 ... 14
C[C@@H](Oc1cc(-c2cnn(C3CCNCC3)c2)cnc1N)c1c(Cl)ccc(F)c1Cl ... 12

Now consider the entry below.
Which %-inhibition, BRAF reading was recorded for the molecule COc1cc2nccc(Oc3ccc(NC(=O)C4(C(=O)Nc5ccc(F)cc5)CC4)cc3)c2cc1OC [cabozantinib] ?
25

====

Can you tell me %-inhibition of PKACγ for the items I'm about to list?
TARGET_OR_SYSTEM: panel of more than 300 wild-type and mutant kinases (313 kinase panel) (Homo sapiens)
EXPERIMENT_SUMMARY: Kinase profiling in a biochemical assay panel (mobility shift assays and ELISA), %-inhibition at 1 μM; selectivity entropy
CONDITION_NOTES: kinase PKACγ; 1 μM
One number for each entry, in %.

# example entries with known answers
CC(=O)Nc1cccc(-n2c(=O)n(C3CC3)c(=O)c3c(Nc4ccc(I)cc4F)n(C)c(=O)c(C)c32)c1 ... 2
CCCS(=O)(=O)Nc1ccc(F)c(C(=O)c2c[nH]c3ncc(-c4ccc(Cl)cc4)cc23)c1F ... -3
CO[C@H]1C[C@@H]2CC[C@@H](C)[C@@](O)(O2)C(=O)C(=O)N2CCCC[C@H]2C(=O)O[C@H]([C@H](C)C[C@@H]2CC[C@@H](OC(=O)C(C)(CO)CO)[C@H](OC)C2)CC(=O)[C@H](C)/C=C(\C)[C@@H](O)[C@@H](OC)C(=O)[C@H](C)C[C@H](C)/C=C/C=C/C=C/1C ... -6

Now consider the entry below.
Form: Entry = N#CC[C@H](C1CCCC1)n1cc(-c2ncnc3[nH]ccc23)cn1 | System = panel of more than 300 wild-type and mutant kinases (313 kinase panel) (Homo sapiens) | %-inhibition of PKACγ = ____
11

====

TARGET_OR_SYSTEM: panel of more than 300 wild-type and mutant kinases (313 kinase panel) (Homo sapiens, UniProt P00533, T790M)
Sequence (P00533 25-1210 T790M): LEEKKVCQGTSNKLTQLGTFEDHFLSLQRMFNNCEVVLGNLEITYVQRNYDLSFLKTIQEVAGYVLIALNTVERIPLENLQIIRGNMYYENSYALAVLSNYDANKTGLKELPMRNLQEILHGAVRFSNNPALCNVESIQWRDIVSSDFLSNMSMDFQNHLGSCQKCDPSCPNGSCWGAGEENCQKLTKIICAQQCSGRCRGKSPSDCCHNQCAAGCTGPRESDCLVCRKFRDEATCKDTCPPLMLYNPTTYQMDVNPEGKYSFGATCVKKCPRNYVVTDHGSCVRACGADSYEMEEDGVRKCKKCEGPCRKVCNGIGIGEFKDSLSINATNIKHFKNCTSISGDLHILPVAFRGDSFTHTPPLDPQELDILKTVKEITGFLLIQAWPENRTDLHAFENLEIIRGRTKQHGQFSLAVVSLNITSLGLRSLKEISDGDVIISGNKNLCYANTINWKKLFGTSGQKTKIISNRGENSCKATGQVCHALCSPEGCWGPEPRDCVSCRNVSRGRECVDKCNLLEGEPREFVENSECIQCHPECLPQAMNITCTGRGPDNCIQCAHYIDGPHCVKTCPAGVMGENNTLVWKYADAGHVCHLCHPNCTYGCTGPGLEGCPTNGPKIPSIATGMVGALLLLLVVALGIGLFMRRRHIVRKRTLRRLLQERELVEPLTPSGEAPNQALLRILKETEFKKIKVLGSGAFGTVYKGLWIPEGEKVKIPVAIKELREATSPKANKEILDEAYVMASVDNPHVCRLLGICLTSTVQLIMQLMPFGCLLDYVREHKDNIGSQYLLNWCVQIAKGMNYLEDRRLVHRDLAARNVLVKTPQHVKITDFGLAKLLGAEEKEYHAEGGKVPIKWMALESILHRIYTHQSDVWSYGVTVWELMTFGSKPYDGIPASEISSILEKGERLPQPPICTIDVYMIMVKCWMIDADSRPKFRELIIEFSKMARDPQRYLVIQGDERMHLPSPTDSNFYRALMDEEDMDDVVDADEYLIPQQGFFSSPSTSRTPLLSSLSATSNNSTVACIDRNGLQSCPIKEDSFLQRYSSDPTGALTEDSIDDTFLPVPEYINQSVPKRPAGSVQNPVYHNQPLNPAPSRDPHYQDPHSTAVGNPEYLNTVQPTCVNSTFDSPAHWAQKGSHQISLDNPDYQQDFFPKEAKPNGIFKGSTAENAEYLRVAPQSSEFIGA
EXPERIMENT_SUMMARY: Kinase profiling in a biochemical assay panel (mobility shift assays and ELISA), %-inhibition at 1 μM; selectivity entropy
CONDITION_NOTES: kinase EGFR(T790M); compound at 1 μM
Can you tell me %-inhibition of EGFR(T790M) for the items I'm about to list?
Numbers only, in %.

# example entries with known answers
COc1cc2nccc(Oc3ccc(NC(=O)C4(C(=O)Nc5ccc(F)cc5)CC4)cc3)c2cc1OC [cabozantinib] ... 32
Cc1ccc(Nc2nccc(N(C)c3ccc4c(C)n(C)nc4c3)n2)cc1S(N)(=O)=O ... 5
COc1cc(Nc2c(C#N)cnc3cc(OCCCN4CCN(C)CC4)c(OC)cc23)c(Cl)cc1Cl ... 87
CCCS(=O)(=O)Nc1ccc(F)c(C(=O)c2c[nH]c3ncc(-c4ccc(Cl)cc4)cc23)c1F ... -5.57
N#CC[C@H](C1CCCC1)n1cc(-c2ncnc3[nH]ccc23)cn1 ... -8

Lab note: each molecule below needs its %-inhibition of EGFR(T790M) filled in.
1. CNC(=O)c1cc(Oc2ccc(NC(=O)Nc3ccc(Cl)c(C(F)(F)F)c3)c(F)c2)ccn1
2. Cc1cn(-c2cc(NC(=O)c3ccc(C)c(Nc4nccc(-c5cccnc5)n4)c3)cc(C(F)(F)F)c2)cn1

-7.38
7.54

====

TARGET_OR_SYSTEM: panel of more than 300 wild-type and mutant kinases (313 kinase panel) (Homo sapiens)
EXPERIMENT_SUMMARY: Kinase profiling in a biochemical assay panel (mobility shift assays and ELISA), %-inhibition at 1 μM; selectivity entropy
CONDITION_NOTES: kinase EPHA7; compound at 1 μM
Can you tell me %-inhibition of EPHA7 for the items I'm about to list?
Report field: quantity (unit follows the number).

# example entries with known answers
CC(=O)Nc1cccc(-n2c(=O)n(C3CC3)c(=O)c3c(Nc4ccc(I)cc4F)n(C)c(=O)c(C)c32)c1 ... -5%
CC(C)(C)c1nc(-c2cccc(NS(=O)(=O)c3c(F)cccc3F)c2F)c(-c2ccnc(N)n2)s1 ... 13%
Cc1ccc(Nc2nccc(N(C)c3ccc4c(C)n(C)nc4c3)n2)cc1S(N)(=O)=O ... 12%
CO[C@H]1C[C@@H]2CC[C@@H](C)[C@@](O)(O2)C(=O)C(=O)N2CCCC[C@H]2C(=O)O[C@H]([C@H](C)C[C@@H]2CC[C@@H](OCCO)[C@H](OC)C2)CC(=O)[C@H](C)/C=C(\C)[C@@H](O)[C@@H](OC)C(=O)[C@H](C)C[C@H](C)/C=C/C=C/C=C/1C ... -4%

Lab note: each compound below needs its %-inhibition of EPHA7 filled in.
1. CS(=O)(=O)CCNCc1ccc(-c2ccc3ncnc(Nc4ccc(OCc5cccc(F)c5)c(Cl)c4)c3c2)o1
2. CNC(=O)c1cc(Oc2ccc(NC(=O)Nc3ccc(Cl)c(C(F)(F)F)c3)c(F)c2)ccn1
3. Cc1cn(-c2cc(NC(=O)c3ccc(C)c(Nc4nccc(-c5cccnc5)n4)c3)cc(C(F)(F)F)c2)cn1
4. COc1cc2nccc(Oc3ccc(NC(=O)C4(C(=O)Nc5ccc(F)cc5)CC4)cc3)c2cc1OC [cabozantinib]
5. COc1cc2c(Nc3ccc(Br)cc3F)ncnc2cc1OCC1CCN(C)CC1
6. CCCS(=O)(=O)Nc1ccc(F)c(C(=O)c2c[nH]c3ncc(-c4ccc(Cl)cc4)cc23)c1F

1. 6.56%
2. 84%
3. 19%
4. 99%
5. 81%
6. -0.639%

====

System: forty-four human cancer cell lines
EXPERIMENT_SUMMARY: Cell proliferation assay (ATPlite, 72 hours) in the 44 cell line Oncolines panel
Assay type: cell-based
CONDITION_NOTES: Homo sapiens, C-33-A, read-out: cell panel IC50, C-33 A
PARAMETER: pIC50
Answers are plain numbers, as −log10 of the molar value.

# example entries with known answers
CN(C)C/C=C/C(=O)Nc1cc2c(Nc3ccc(F)c(Cl)c3)ncnc2cc1O[C@H]1CCOC1 ... 7.68
Cc1nc(Nc2ncc(C(=O)Nc3c(C)cccc3Cl)s2)cc(N2CCN(CCO)CC2)n1 ... 8.05
COc1cc2nccc(Oc3ccc(NC(=O)C4(C(=O)Nc5ccc(F)cc5)CC4)cc3)c2cc1OC [cabozantinib] ... 4.71

Now consider the entry below.
Which pIC50 reading was recorded for the compound CNC(=O)c1cc(Oc2ccc(NC(=O)Nc3ccc(Cl)c(C(F)(F)F)c3)cc2)ccn1 ?
4.80

====

TARGET_OR_SYSTEM: panel of more than 300 wild-type and mutant kinases (313 kinase panel) (Homo sapiens, UniProt P11802)
Sequence (P11802 whole entry, change not shown): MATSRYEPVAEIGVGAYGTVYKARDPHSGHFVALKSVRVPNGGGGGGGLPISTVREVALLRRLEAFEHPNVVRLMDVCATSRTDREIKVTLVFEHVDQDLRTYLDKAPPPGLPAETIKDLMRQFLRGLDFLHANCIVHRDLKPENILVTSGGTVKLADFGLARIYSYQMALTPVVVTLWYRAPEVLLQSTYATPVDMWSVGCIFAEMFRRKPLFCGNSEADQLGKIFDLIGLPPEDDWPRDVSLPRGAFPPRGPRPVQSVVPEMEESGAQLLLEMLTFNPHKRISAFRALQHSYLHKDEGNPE
EXPERIMENT_SUMMARY: Kinase profiling in a biochemical assay panel (mobility shift assays and ELISA), %-inhibition at 1 μM; selectivity entropy
CONDITION_NOTES: kinase CDK4/CycD3; 1 μM compound
PARAMETER: %-inhibition, CDK4/CycD3 (%)
One number for each entry, in %.

C[C@@H](Oc1cc(-c2cnn(C3CCNCC3)c2)cnc1N)c1c(Cl)ccc(F)c1Cl ... 7
CNC(=O)c1cc(Oc2ccc(NC(=O)Nc3ccc(Cl)c(C(F)(F)F)c3)c(F)c2)ccn1 ... 6.52
N#CC[C@H](C1CCCC1)n1cc(-c2ncnc3[nH]ccc23)cn1 ... -1.74

Which %-inhibition, CDK4/CycD3 reading was recorded for the compound COc1cc2nccc(Oc3ccc(NC(=O)C4(C(=O)Nc5ccc(F)cc5)CC4)cc3)c2cc1OC [cabozantinib] ?
-5
